Hey, just so you know, these numbers are from paper PMC7025647.

Biological target: recombinant BmLDH (rBmLDH) (Babesia microti, UniProt I7J7V6)
Sequence (I7J7V6 entry or part of it): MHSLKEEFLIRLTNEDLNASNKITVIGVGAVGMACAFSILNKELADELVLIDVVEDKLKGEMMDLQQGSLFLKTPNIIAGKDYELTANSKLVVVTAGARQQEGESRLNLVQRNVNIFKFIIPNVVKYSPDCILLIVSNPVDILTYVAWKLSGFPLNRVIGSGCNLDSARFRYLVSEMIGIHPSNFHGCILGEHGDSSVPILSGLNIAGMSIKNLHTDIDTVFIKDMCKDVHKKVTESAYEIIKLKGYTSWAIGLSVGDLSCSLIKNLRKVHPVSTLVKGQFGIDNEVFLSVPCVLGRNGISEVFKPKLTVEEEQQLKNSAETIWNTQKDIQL
Test: biochemical
Format: biochemical
Conditions: IC50 against BmLDH activity, rBmLDH, mean ± SD of three experiments
Description: The enzyme activity of rBmLDH was analyzed using Lactate Dehydrogenase Activity Assay Kit (Sigma-Aldrich, Shanghai, China) according to the manufacturer’s instruction. Briefly, the enzymatic activity of BmLDH was detected by catalyzing the conversion of lactate to pyruvate, with concomitant reduction of NAD^+ to NADH. The coupled reaction was followed by measuring absorbance at 450 nm and at 37°C. […]
readout_label: IC50 (µM)
Form entry: value (µM) — number only.

QUERY: Give the measured IC50 of O=C(O)c1cc2cc(Br)ccc2c(Br)c1O [DBHCA] .
RESULT: 53.9

---

Molecular target: rBmLDH (Babesia microti, UniProt I7J7V6)
Sequence (I7J7V6 entry or part of it): as above
Experiment: Surface plasmon resonance binding kinetics (Biacore T200)
readout_label: Kd (µM)
Give the value, in units of µM, as a plain number.

QUERY: Reported Kd for O=C(O)c1cc2cc(Br)ccc2c(Br)c1O [DBHCA] : what is it?
RESULT: 0.0399

---

Assay: Cytotoxicity test by MTT method
Assay type: cell-based, African green monkey
Details: African green monkey, Vero cells (ATCC-CCL-81), MTT, 72 h; read-out: CC50 Vero
readout_label: CC50 at 72 h (µM)
Respond numerically; units are µM and should not be typed.

compound	unit_name	CC50 at 72 h
O=C(O)c1cc2cccc(O)c2cc1O [DHNA, 3,5-Dihydroxy 2-napthoic acid]	µM	1900

Attention now turns to another entry.
QUERY: Can you share its CC50 at 72 h? I mean this compound: O=C(O)c1cc2cc(Br)ccc2c(Br)c1O
RESULT: 217

---

Target: recombinant BmLDH (rBmLDH) (Babesia microti)
Assay: biochemical
Type: biochemical
Settings: rBmLDH, mean ± SD of three experiments; read-out: IC50 against BmLDH activity
readout_label: pIC50
Recall that pIC50 is obtained by taking minus log10 of the concentration measured in molar.

QUERY: Query: pIC50; subject: O=C(O)c1cc2cccc(O)c2cc1O [DHNA, 3,5-Dihydroxy 2-napthoic acid]
RESULT: 4.52

---

Target: recombinant BmLDH (rBmLDH) (Babesia microti)
Test: biochemical
Assay type: biochemical
Details: rBmLDH 100 ng, lactate to pyruvate, absorbance 450 nm, 37°C; read-out: BmLDH IC50
readout_label: pIC50
Would you please state pIC50, meaning minus log10 of the concentration in mol/L, as a bare number?

QUERY: Give recorded pIC50 with recombinant BmLDH (rBmLDH) (Babesia microti) for the following molecule: O=C(O)c1cc2cccc(O)c2cc1O [DHNA, 3,5-Dihydroxy 2-napthoic acid]
RESULT: 4.52

---

Molecular target: recombinant BmLDH (rBmLDH) (Babesia microti)
Assay: biochemical
Assay type: biochemical
Settings: BmLDH IC50, rBmLDH 100 ng, lactate to pyruvate, absorbance 450 nm, 37°C
readout_label: pIC50
Bear in mind: pIC50 is minus log10 of a mol/L concentration; give just that figure.

QUERY: Which pIC50 value is on record for O=C(O)c1cc2cc(Br)ccc2c(Br)c1O ?
RESULT: 4.27
